Please respond with reported EC50 for every item in the list.
- Target or test system: human TLR-8 (Homo sapiens, UniProt Q9NR97)
- Sequence (Q9NR97 27-1041): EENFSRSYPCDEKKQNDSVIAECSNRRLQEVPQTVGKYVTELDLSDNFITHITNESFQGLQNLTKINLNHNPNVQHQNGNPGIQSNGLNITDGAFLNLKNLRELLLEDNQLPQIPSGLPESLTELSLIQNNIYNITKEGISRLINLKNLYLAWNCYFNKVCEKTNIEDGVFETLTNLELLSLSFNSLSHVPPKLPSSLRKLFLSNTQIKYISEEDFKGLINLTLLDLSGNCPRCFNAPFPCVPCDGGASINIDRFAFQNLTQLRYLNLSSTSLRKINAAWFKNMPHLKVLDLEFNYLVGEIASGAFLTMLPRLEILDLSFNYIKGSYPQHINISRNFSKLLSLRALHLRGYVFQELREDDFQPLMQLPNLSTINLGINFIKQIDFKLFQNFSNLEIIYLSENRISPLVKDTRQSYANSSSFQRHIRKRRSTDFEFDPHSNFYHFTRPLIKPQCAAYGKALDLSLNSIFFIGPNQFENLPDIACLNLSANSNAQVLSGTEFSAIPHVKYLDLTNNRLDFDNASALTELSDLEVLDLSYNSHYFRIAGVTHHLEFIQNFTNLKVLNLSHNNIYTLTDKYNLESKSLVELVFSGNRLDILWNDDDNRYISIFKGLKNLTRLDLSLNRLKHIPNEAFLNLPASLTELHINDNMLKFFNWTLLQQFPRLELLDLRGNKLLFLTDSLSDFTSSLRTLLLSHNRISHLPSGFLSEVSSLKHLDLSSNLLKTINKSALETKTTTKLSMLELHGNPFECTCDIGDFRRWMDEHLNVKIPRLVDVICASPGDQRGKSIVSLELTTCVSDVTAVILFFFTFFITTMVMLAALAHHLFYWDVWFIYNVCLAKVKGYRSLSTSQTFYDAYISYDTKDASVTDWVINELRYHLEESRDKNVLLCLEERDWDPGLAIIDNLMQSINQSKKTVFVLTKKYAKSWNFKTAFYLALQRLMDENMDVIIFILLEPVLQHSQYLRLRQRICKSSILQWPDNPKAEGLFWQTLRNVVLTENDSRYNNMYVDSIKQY
- Assay protocol: TLR7/8-NF-κB Reporter Assay (HEK SEAP Reporter Assay), HEK-TLR-8 cells
- Conditions used: HEK cells stably transfected with human TLR-8 and NF-κB-responsive SEAP gene, 24 h
Numbers only, in µM.

Worked cases, answers included:
* CCCCc1nc2c(N)nc3cc(C(=O)OC)ccc3c2n1CCCCN | 3.85
* CCCCc1nc2c(N)nc3cc(C(=O)OC)ccc3c2n1CCCNS(=O)(=O)c1ccccc1 | 0.24

Hey, quick one: what's EC50 for each of these?
1. CCCCc1nc2c(N)nc3cc(C(=O)OC)ccc3c2n1CCCCCN
2. CCCCc1nc2c(N)nc3cc(C(=O)OC)ccc3c2n1CCCN

Response:
2.2
66

----------
- Target or test system: human TLR-7 (Homo sapiens, UniProt Q9NYK1)
- Sequence (Q9NYK1 27-1049): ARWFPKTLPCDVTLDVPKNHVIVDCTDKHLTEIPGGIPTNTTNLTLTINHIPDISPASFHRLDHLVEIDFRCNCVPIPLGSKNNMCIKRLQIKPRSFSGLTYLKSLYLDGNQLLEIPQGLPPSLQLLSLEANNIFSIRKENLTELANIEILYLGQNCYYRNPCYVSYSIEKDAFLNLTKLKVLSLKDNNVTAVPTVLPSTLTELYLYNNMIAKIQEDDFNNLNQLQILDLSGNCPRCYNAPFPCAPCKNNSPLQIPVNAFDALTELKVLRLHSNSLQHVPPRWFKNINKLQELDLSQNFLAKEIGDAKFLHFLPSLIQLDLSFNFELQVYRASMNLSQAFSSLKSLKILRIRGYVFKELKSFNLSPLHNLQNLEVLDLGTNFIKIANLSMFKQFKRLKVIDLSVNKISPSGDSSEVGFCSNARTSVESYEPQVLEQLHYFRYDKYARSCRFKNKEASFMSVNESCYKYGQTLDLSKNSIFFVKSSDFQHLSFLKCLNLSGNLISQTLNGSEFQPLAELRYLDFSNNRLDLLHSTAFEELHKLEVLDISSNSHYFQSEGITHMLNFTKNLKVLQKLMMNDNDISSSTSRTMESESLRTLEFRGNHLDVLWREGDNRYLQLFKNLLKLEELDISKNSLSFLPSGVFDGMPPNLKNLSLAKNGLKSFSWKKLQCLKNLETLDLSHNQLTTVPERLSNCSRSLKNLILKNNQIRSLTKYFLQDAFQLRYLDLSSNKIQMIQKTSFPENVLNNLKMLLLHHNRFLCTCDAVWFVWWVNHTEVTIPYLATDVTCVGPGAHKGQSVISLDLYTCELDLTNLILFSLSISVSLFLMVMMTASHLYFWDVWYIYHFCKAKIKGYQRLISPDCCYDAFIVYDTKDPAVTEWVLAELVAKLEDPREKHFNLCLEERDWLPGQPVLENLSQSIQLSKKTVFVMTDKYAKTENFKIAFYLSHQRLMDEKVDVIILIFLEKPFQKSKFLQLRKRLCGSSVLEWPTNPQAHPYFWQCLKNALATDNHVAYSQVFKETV
- Assay protocol: TLR7/8-NF-κB Reporter Assay (HEK SEAP Reporter Assay), HEK-TLR-7 cells
- Conditions used: HEK cells stably transfected with human TLR-7 and NF-κB-responsive SEAP gene, 24 h
So basically: is EC50 under 4 µM? Then condition met. Not under? Then condition not met.

• CCCCc1nc2c(N)nc3cc(C(=O)OC)ccc3c2n1CCSC = condition met

Query: Problem: For the molecule `CCCCc1nc2c(N)nc3cc(C(=O)OC)ccc3c2n1CC(=O)OC` , is EC50 under 4 µM?
Response: condition met

Query: Problem: For the molecule `CCCCc1nc2c(N)nc3cc(C(=O)OC)ccc3c2n1CCCCCC(=O)OC` , is EC50 under 4 µM?
Response: condition met
